All values here come from PubChem BioAssay.

assay: probe aLefty1 binding on compound microarray – biochemical, small-molecule microarray, 635/667 nm fluorescence, primary screen (AID 1153); settings: higher = more signal;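 also: score merges spot fluorescence with signal-to-noise ratio from the scanned slide images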
PROPERTY: composite z-score
Form field (numeric): enter value without unit.

Form field composite z-score, entry NC(=O)NCC#Cc1ccc2c(c1)[C@]1(C(=O)N2)[C@H](c2ccc(O)cc2)N2[C@H](c3ccccc3)[C@H](c3ccccc3)OC(=O)[C@H]2[C@@H]1C(=O)N1CCN(c2ncccn2)CC1 : 0.266

Form field composite z-score, entry CCCNC(=O)[C@@]1(C)c2ccccc2C(=O)N(Cc2ccc(OC(F)(F)F)cc2)[C@H]1c1ccc(CO)cc1 : 0.15

Form field composite z-score, entry C=CCN1Cc2ccccc2C[C@@]2(COC(c3ccc(OCCCO)cc3)=N2)C1=O : 0.121

Form field composite z-score, entry [N-]=[N+]=NCc1ccccc1[C@H]1OC(c2ccc(OCCCO)cc2)=N[C@@]1(Cc1ccccc1)C(=O)O : -0.166

Form field composite z-score, entry C=C(COC)/C(=C/C[C@H](OC(C)=O)c1ccccc1OCCO)c1cnc2ccccc2c1 : -0.0779

Form field composite z-score, entry C[N+](C)(C)CCCC[C@@H]1NC(=O)[C@H]2C[C@@H](C(=O)O)[C@@H](c3cccc(OCCO)c3)N2C1=O : 1.69

Form field composite z-score, entry CCCCC(=C=CC[C@H](O)c1ccccc1OCCO)C[C@H](O)c1cc(Cl)cc(Cl)c1O : -0.0989

Form field composite z-score, entry Oc1ccc2cc[n+](Cc3cccc(OC(F)(F)F)c3)cc2c1 : -0.606

Form field composite z-score, entry COc1ccc(C(O)C2C=CC3C(=O)N(c4ccccc4)C(=O)C3N2Nc2ccccc2)c2ccccc12 (stereo unspecified) : 0.318

Form field composite z-score, entry O=[N+]([O-])c1ccc(C[n+]2ccc(CCCO)cc2)o1 : -0.0162

Form field composite z-score, entry O=C1O[C@@H](c2ccccc2)[C@@H](c2ccccc2)N2[C@@H](c3ccccc3OCCO)[C@]3(C(=O)Nc4ccc(C#CC5(O)CCCCCC5)cc43)[C@@H](C(=O)NC[C@H](O)c3ccccc3)[C@H]12 : 1.38

Form field composite z-score, entry O=C1C2C=CC(C(O)C3CC=CCC3)N(n3cnnc3)C2C(=O)N1Cc1ccccc1 (stereo unspecified) : 0.0455

Form field composite z-score, entry CN1C(=O)C2C=CC(C(O)C(C)(C)C)N(Nc3ccccc3)C2C1=O (stereo unspecified) : -0.0838

Form field composite z-score, entry COc1ccccc1CN1C(=O)c2ccccc2[C@](Cc2ccccc2I)(C(=O)NC2CC2)[C@@H]1c1ccc(CO)cc1 : -0.25

Form field composite z-score, entry C=C(/C(=C/C[C@@H](OC(=O)c1ccncc1)c1ccc(CO)o1)c1cc(C(=O)OC)ccc1OC)C(C)C : 0.107

Form field composite z-score, entry CN(C)CCCCCCNC(=O)[C@@H]1C[C@@H]2C(=O)N[C@@H](Cc3ccccc3)C(=O)N2[C@@H]1c1cccc(OCCO)c1 : 0.073

###

assay: calcein-AM signal in unstimulated myeloma cells – cell-based, calcein-AM fluorescence, 48 h, PK04 Diversity Set, profiling panel (AID 1166); conditions: RPMI8226 myeloma viability, higher = more signal;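 also: cells grown under basal conditions without added stimulus; test concentration not given here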
Output rule met for records whose z-score is lower than -0.9, rule not met for records at or above -0.9.

Request: # strict comparison: is reported z-score < -0.9? input = C/C=C/[C@H](CCn1cc([C@H](O)c2ccccc2)nn1)[Si](C)(C)c1ccc(OC)cc1
Result: rule met

Request: # strict comparison: is reported z-score < -0.9? input = O=C1OCC=C[C@H]2OC34C=CCN(CCN5CCOCC5)C(=O)[C@H]3N(CCCCCCO)C(=O)[C@@H]4[C@@H]12 (some centres not stated)
Result: rule not met

Request: # strict comparison: is reported z-score < -0.9? input = CC(=O)N1Cc2ccccc2C[C@@]2(N=C(c3ccc(OCCCO)cc3)O[C@H]2c2ccccc2)C1=O
Result: rule met

Request: # strict comparison: is reported z-score < -0.9? input = O=C1OCC=C[C@H]2OC34C=CCN(Cc5ccccc5)C(=O)[C@H]3N(CCCO)C(=O)[C@@H]4[C@@H]12 (some centres not stated)
Result: rule not met

Request: # strict comparison: is reported z-score < -0.9? input = COC(=O)C(CC#Cc1ccc2c(c1)[C@]1(C(=O)N2)[C@H](C(=O)N2CCCCCCC2)[C@H]2C(=O)O[C@H](c3ccccc3)[C@H](c3ccccc3)N2[C@@H]1c1ccccc1OCCO)C(=O)OC
Result: rule not met

Request: # strict comparison: is reported z-score < -0.9? input = C=CCNC(=O)[C@H]1[C@@H]2C(=O)O[C@@H](c3ccccc3)[C@@H](c3ccccc3)N2[C@@H](c2ccc(O)cc2)[C@]12C(=O)Nc1ccc(C#Cc3ccc(OC)cc3)cc12
Result: rule met

Request: # strict comparison: is reported z-score < -0.9? input = C=C[C@@H](C)[C@@H](OC(=O)Nc1ccc(OC)cc1)c1ccc(O)c2ccccc12
Result: rule met

Request: # strict comparison: is reported z-score < -0.9? input = CC(C)C[C@@H]1NC(=O)[C@@H]2C[C@H](C(=O)NCCCCN(C)C)[C@H](c3ccc(O)cc3)N2C1=O
Result: rule not met

Request: # strict comparison: is reported z-score < -0.9? input = Cc1ccc(S[C@]2(C(=O)NCc3ccccc3)CC(=O)N(Cc3cc(C(F)(F)F)cc(C(F)(F)F)c3)[C@@H]2c2ccc(CO)cc2)cc1
Result: rule met

Request: # strict comparison: is reported z-score < -0.9? input = CC(C)[C@H]1COC(=O)N1C(=O)[C@H]1[C@@H](c2ccccc2)N(c2ccccc2)O[C@@H]1C
Result: rule not met

Request: # strict comparison: is reported z-score < -0.9? input = COc1ccc([Si](C)(C)[C@@H]2[C@@H](CC(=O)N3Cc4ccccc4C[C@H]3CO)O[C@]3(C(=O)N(Cc4cccc(N5C(=O)COc6ccccc65)c4)c4ccccc43)[C@H]2C)cc1
Result: rule met

Request: # strict comparison: is reported z-score < -0.9? input = CC(=O)NCCCC[C@@H]1NC(=O)[C@@H]2C[C@H](C(=O)NCc3ccc(F)cc3)[C@H](c3ccc(O)cc3)N2C1=O
Result: rule not met

Request: # strict comparison: is reported z-score < -0.9? input = [N-]=[N+]=NCc1ccccc1C[C@]1(C(=O)NCC(O)CO)COC(c2ccc(OCCCO)cc2)=N1 (some centres not stated)
Result: rule met

Request: # strict comparison: is reported z-score < -0.9? input = C=CCOC(=O)[C@H]1[C@@H]2C(=O)O[C@@H](c3ccccc3)[C@@H](c3ccccc3)N2[C@@H](c2ccc(OCCOC(=O)[C@@H]3C[C@@H]4C(=O)NCC(=O)N4[C@@H]3c3ccc(O)cc3)cc2)[C@]12C(=O)Nc1ccc(I)cc12
Result: rule not met

Request: # strict comparison: is reported z-score < -0.9? input = CCCNC(=O)[C@@]1(C)c2ccccc2C(=O)N(Cc2cc(F)cc(C(F)(F)F)c2)[C@H]1c1ccc(CO)cc1
Result: rule not met

Request: # strict comparison: is reported z-score < -0.9? input = COCCOC(=O)N1C(=O)[C@@]2(c3cc(C#CC4=CCCCC4)ccc31)[C@H](c1ccc(OCCO)cc1)N1[C@H](c3ccccc3)[C@H](c3ccccc3)OC(=O)[C@H]1[C@@H]2C(=O)Nc1nc2ccccc2s1
Result: rule not met

Request: # strict comparison: is reported z-score < -0.9? input = CC(C)OC(=O)C1=CCC(c2cccc(Cl)c2)O1 (configuration not stated)
Result: rule met

Request: # strict comparison: is reported z-score < -0.9? input = O=c1cccc(-c2ccccc2)o1
Result: rule not met

Request: # strict comparison: is reported z-score < -0.9? input = COC(=O)[C@@]1(Cc2ccc(OC)cc2)[C@H]2c3cc(C(=O)N(C)C)n(Cc4ccc(OC)c(OC)c4)c3C[C@H]2CN1C(=O)c1ccccc1
Result: rule met

Request: # strict comparison: is reported z-score < -0.9? input = COCCOC(=O)N1C(=O)[C@@]2(c3cc(C#CC4(O)CCCCCC4)ccc31)[C@H](c1ccc(O)cc1)N1[C@H](c3ccccc3)[C@H](c3ccccc3)OC(=O)[C@H]1[C@@H]2C(=O)N1CCc2cc(OC)c(OC)cc2C1
Result: rule not met

Request: # strict comparison: is reported z-score < -0.9? input = C#C[C@H]1Oc2ccccc2S(=O)(=O)N2CCC[C@@H]12
Result: rule not met

Request: # strict comparison: is reported z-score < -0.9? input = CN(C)CCCCNC(=O)[C@@H]1C[C@@H]2C(=O)N[C@@H](CCCCN)C(=O)N2[C@@H]1c1cccc(OCCO)c1
Result: rule not met

Request: # strict comparison: is reported z-score < -0.9? input = CCCCC(=O)N(Cc1ccccc1F)[C@@H]1CC(C(=O)NCCO)=C[C@H](Oc2c(I)cc(CO)cc2OC)[C@H]1O
Result: rule met

Request: # strict comparison: is reported z-score < -0.9? input = C=CCOC(=O)[C@@H]1[C@H]2C(=O)O[C@H](c3ccccc3)[C@H](c3ccccc3)N2[C@H](c2ccc(OCCOC(=O)[C@H]3C[C@H]4C(=O)N[C@@H](CCCC[N+](C)(C)C)C(=O)N4[C@H]3c3cccc(OCCO)c3)cc2)[C@@]12C(=O)Nc1ccc(I)cc12
Result: rule not met

Request: # strict comparison: is reported z-score < -0.9? input = CN(C)CCCCCCNC(=O)[C@@H]1C[C@@H]2C(=O)NCC(=O)N2[C@@H]1c1cccc(OCCO)c1
Result: rule not met

Request: # strict comparison: is reported z-score < -0.9? input = CN(C)CCCCCCNC(=O)[C@@H]1C[C@@H]2C(=O)N[C@@H](Cc3ccccc3)C(=O)N2[C@@H]1c1cccc(OCCO)c1
Result: rule not met
